- test-system: T1, IL-11 (UniProt P20809 22-199, limits assumed)
- T1 construct: also called IL-11 protein; IL-11 antigen
- T1 sequence (looked up): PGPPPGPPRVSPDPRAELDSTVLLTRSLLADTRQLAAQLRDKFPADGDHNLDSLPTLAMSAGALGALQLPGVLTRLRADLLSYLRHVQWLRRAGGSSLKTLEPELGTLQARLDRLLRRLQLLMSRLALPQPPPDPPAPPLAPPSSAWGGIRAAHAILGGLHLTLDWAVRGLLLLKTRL
- assay-method-text: BLI (Fortebio), antibody on AHC sensor, IL-11 3.91-125 nM
result-type: kon (M⁻¹ s⁻¹)
Lab book: enter the figure in M⁻¹ s⁻¹, no units written.

*Q* Answer with the recorded kon for the binder listed here: MIL-11 mab-01 (antibody, IgG1, V domains shown, also called 1E12 full-length antibody) VH: QVQLVQSGAEVKKPGASVKVSCKASDYTFTNYWLGWVRQAPGQGLEWMGHIYPGGGYTNYNEKFKGRVTMTRDTSTSTVYMELSSLRSEDTAVYYCARVSSGNDALDLWGQGTLVTVSS VL: EIVLTQSPATLSLSPGERATLSCRASESVDEYGISFMNWFQQKPGQAPRLLIYSGSNEGSGIPARFSGSGSGTDFTLTISSLEPEDFAVYFCNQSKEVPWTFGGGTKLEIK
*A* 501000

*Q* Retrieve kon measured for MIL-11 mab-03 (antibody, IgG1, V domains shown, also called 1F12 full-length antibody) VH: QVQLVQSGAEVKKPGASVKVSCKASDYTFTNYWLGWVRQAPGQGLEWMGHIYPGGGYTNYNEKFKGRVTMTRDTSTSTVYMELSSLRSEDTAVYYCARVSSGNDALDFWGQGTLVTVSS VL: EIVLTQSPATLSLSPGERATLSCRASESVDEYGISFMNWFQQKPGQAPRLLIYSASNQASGIPARFSGSGSGTDFTLTISSLEPEDFAVYFCQQSKELPWTFGGGTKLEIK and print it.
*A* 580000

New cases:
*Q* Name the recorded kon of the item MIL-11 mab-02 (antibody, IgG1, V domains shown, also called 2E2 full-length antibody) VH: QVQLVQSGAEVKKPGASVKVSCKASDYTFTNYWLGWVRQAPGQGLEWMGHIYPGGGYTNYNEKFKGRVTMTRDTSTSTVYMELSSLRSEDTAVYYCARVSSGNDALDFWGQGTLVTVSS VL: EIVLTQSPATLSLSPGERATLSCRASESVDEYGISFMNWFQQKPGQAPRLLIYSASNQGSGIPARFSGSGSGTDFTLTISSLEPEDFAVYFCQQSKELPWTFGGGTKLEIK in your answer.
*A* 535000

Value source: patent US20250002574A1
